Reference for the values: patent EP0641797A1

System: S. marcescens IAM 1184
Test: MIC on standard strains, standard method of Japan Society of Chemotherapy
Type: cell-based
Settings: Serratia marcescens, IAM1184, S. marcescens IAM 1184; read-out: MIC
Method: Antimicrobial activity of the compounds of the present invention were measured using CTM (cefotiam) and FMOX (flomoxef) as control drugs in accordance with the standard method of Japan Society of Chemotherapy. Of the 25 standard strains used in this test, Staphylococcus aureus 167 and Staphylococcus aureus 195 belong to MRSA. In these tables, drugs tested are shown by the corresponding examples in which they were synthesized.
Listing of entries alongside the reported MIC.

{"structure_as_smiles": "Nc1nc(/C(=N/O)C(=O)N[C@@H]2C(=O)N3C(C(=O)[O-])=C(C[n+]4cccc(-c5ncno5)c4)CS[C@H]23)ns1", "MIC": "6.25 µg/mL"}
{"structure_as_smiles": "Nc1nc(-c2ccc[n+](CC3=C(C(=O)[O-])N4C(=O)[C@@H](NC(=O)/C(=N\\O)c5csc(N)n5)[C@H]4SC3)c2)no1", "MIC": "0.78 µg/mL"}
{"structure_as_smiles": "NC(=O)Cc1ccc[n+](CC2=C(C(=O)[O-])N3C(=O)[C@@H](NC(=O)/C(=N\\O)c4nsc(N)n4)[C@H]3SC2)c1", "MIC": "0.78 µg/mL"}
{"structure_as_smiles": "Nc1nc(/C(=N/O)C(=O)N[C@@H]2C(=O)N3C(C(=O)[O-])=C(C[n+]4ccc(-c5ncno5)cc4)CS[C@H]23)ns1", "MIC": "0.78 µg/mL"}

Task: Reported MIC, molecule `Nc1nc(/C(=N/O)C(=O)N[C@@H]2C(=O)N3C(C(=O)[O-])=C(C[n+]4cccc(-c5ncno5)c4)CS[C@H]23)cs1` : ____
Output: 0.78 µg/mL

Task: Reported MIC, molecule `Nc1nc(/C(=N/O)C(=O)N[C@@H]2C(=O)N3C(C(=O)[O-])=C(C[n+]4cccc(-c5cscn5)c4)CS[C@H]23)cs1` : ____
Output: 0.39 µg/mL
